System: HEK-293T
Assay: Multiplex assay against HEK293T
Type: toxicity, cell-based
Settings: human, 24 h, 10 µM, compound concentration 10 uM, replicate 1
As shown below, each of these compounds has a reported Population Healthy Nuclei (%) value.
Your answer is read as %, so omit the unit and give the number.

Query: For HEK-293T, give Population Healthy Nuclei (%) of the listed compound: OCCCNc1cc(-c2ccnc(Nc3cccc(Cl)c3)n2)ccn1
Response: 44

====

System: U2OS
Test: Multiplex assay against U2OS
Assay type: toxicity, cell-based
Settings: human, 12 h, 1 µM, compound concentration 1 uM, replicate 1
Assay Readout: Total Cell Count
Lab note: record just the number, no unit beside it.

# count of solved cases: 5
Compound	Assay Target	Observed Result
COc1cc(OC2CCN(C(C)=O)CC2)ccc1C(=O)N1CCC(N2C(=O)OCc3ccccc32)CC1	U2OS	233
CN1C[C@H](C(=O)N[C@]2(C)O[C@@]3(O)[C@@H]4CCCN4C(=O)[C@H](Cc4ccccc4)N3C2=O)C[C@@H]2c3cccc4[nH]cc(c34)C[C@H]21.CS(=O)(=O)O [DIHYDROERGOTAMINE MESYLATE]	U2OS	233
N[C@](CC1c2ccccc2Oc2ccccc21)(C(=O)O)[C@H]1C[C@@H]1C(=O)O	U2OS	218
CN1CCC(C(=O)c2cccc(NC(=O)c3c(F)cc(F)cc3F)n2)CC1	U2OS	218
CN(C)C(=O)Cn1cc(-c2ccc(-c3nnc4ccccn34)cc2)cn1	U2OS	251

Query: Answer with the recorded Total Cell Count of O=C(NCCNCC(O)COc1ccc(O)cc1)N1CCOCC1.O=C(NCCNCC(O)COc1ccc(O)cc1)N1CCOCC1.O=C(O)/C=C/C(=O)O (stereo not drawn) [XAMOTEROL FUMARATE] only.
Response: 265

Query: Note down Total Cell Count recorded for COc1cc2nc(N3CCN(C(=O)c4ccco4)CC3)nc(N)c2cc1OC.Cl [PRAZOSIN HYDROCHLORIDE]
Response: 235

Query: For the compound Cn1cc(C(=O)OCC2CCN(CCNS(C)(=O)=O)CC2)c2ccccc21 , give its measured Total Cell Count value.
Response: 226

====

Tested on: HEK-293T
Assay: Multiplex assay against HEK293T
Assay type: toxicity, cell-based
Conditions: human, 48 h, 1 µM, compound concentration 1 uM, replicate 1
Reported Population Apoptotic (%) values for a set of compounds
Please state the figure in %; there is no need to write the unit.

Please review the following examples before continuing.
Compound	Value Units	Observed Result
COCCn1c(C)c(C)s/c1=N\C(=O)C1C(C)(C)C1(C)C	%	20
Cn1cc(C(=O)OCC2CCN(CCNS(C)(=O)=O)CC2)c2ccccc21	%	25
Nc1nc(-c2ccco2)c2cnn(Cc3ccccc3F)c2n1	%	32
CSc1nc(NC2CCCC2)c([N+](=O)[O-])c(NC2CCCC2)n1	%	35
CN1C[C@H](C(=O)N[C@]2(C)O[C@@]3(O)[C@@H]4CCCN4C(=O)[C@H](Cc4ccccc4)N3C2=O)C[C@@H]2c3cccc4[nH]cc(c34)C[C@H]21.CS(=O)(=O)O [DIHYDROERGOTAMINE MESYLATE]	%	29

Query: # return recorded Population Apoptotic (%) for input CCn1c(-c2nc3cc(C(=O)N4CCCC(N)C4)ccc3n2C)cc2ccccc21.Cl (stereo not drawn)
Response: 20

Query: # return recorded Population Apoptotic (%) for input Cc1nn(C)c2nc(NNC(=O)Nc3cc(Cl)nc(Cl)c3)cc(C(C)C)c12
Response: 27

Query: For the compound Cc1cc(-c2ccc3c(c2)CC[C@H]3N2CC3(CCN(C(=O)Cc4cn5cc(C)sc5n4)CC3)C2)ncn1 , report Population Apoptotic (%).
Response: 25

====

System: U2OS
Experiment: Multiplex assay against U2OS
Format: toxicity, cell-based
Settings: human, 24 h, 1 µM, compound concentration 1 uM, replicate 1
Non-standard residues stand in square brackets, D forms with d. Residues, ends and D or L forms follow the SMILES beside them.
# note: exactly 2% is not below, so it is f; use t for Population Hoechst High Intensity Objects (%) strictly under it

Below, 3 molecules whose answers are already recorded.
Molecule	Group Label
O=c1ccc2ccc(OCCCCN3CCN(c4cccc5sccc45)CC3)cc2[nH]1	f
COc1c(Nc2ccc(S(C)(=O)=O)nc2C)ncnc1OC1CCN(C(=O)OC(C)C)CC1	f
O=C(O)CCC/C=C\CC1C(O)CC(O)C1/C=C/C(O)COc1cccc(Cl)c1 (configuration not stated)	t

Query: Criterion: Population Hoechst High Intensity Objects (%) strictly below 2%. Is it met by Cl.Cl.OCCOCCN1CCN(C(c2ccccc2)c2ccc(Cl)cc2)CC1 (configuration not stated) [HYDROXYZINE HYDROCHLORIDE] ?
Response: t

Query: Population Hoechst High Intensity Objects (%) under 2%? Item: Cc1c(Cc2ccc3ccccc3n2)c2cc(F)ccc2n1CC(=O)O
Response: t

Query: Check if Population Hoechst High Intensity Objects (%) falls below 2% for N[C@](CC1c2ccccc2Oc2ccccc21)(C(=O)O)[C@H]1C[C@@H]1C(=O)O .
Response: t

Query: Is the reported Population Hoechst High Intensity Objects (%) for Cc1cc(=O)n(C)c2cc(N3C(=O)CC[C@H](NS(=O)(=O)CC(C)C)[C@H]3c3ccc(Cl)cc3)ccc12 strictly below 2%?
Response: f

Query: A record lists CCn1c(-c2nc3cc(C(=O)N4CCCC(N)C4)ccc3n2C)cc2ccccc21.Cl (configuration not stated) . Is its Population Hoechst High Intensity Objects (%) below 2%?
Response: t

Query: Check if Population Hoechst High Intensity Objects (%) falls below 2% for CN(C)C(=O)Cn1cc(-c2ccc(-c3nnc4ccccn34)cc2)cn1 .
Response: t

Query: Strictly below 2% in Population Hoechst High Intensity Objects (%)? COc1cc2nc(N3CCN(C(=O)COc4c(OC)cccc4C(C)C)CC3)nc(N)c2cc1OC.Cl.Cl
Response: f

Query: Check if Population Hoechst High Intensity Objects (%) falls below 2% for COc1cc(OC2CCN(C(C)=O)CC2)ccc1C(=O)N1CCC(N2C(=O)OCc3ccccc32)CC1 .
Response: t

Query: Find out if reported Population Hoechst High Intensity Objects (%) for CCCCC[C@H](O)/C=C/[C@H]1[C@H](O)CC(=O)[C@@H]1CCCCCCC(=O)O is less than 2%
Response: t

Query: For C=CCN1C[C@H](C(=O)N(CCCN(C)C)C(=O)NCC)C[C@@H]2c3cccc4[nH]cc(c34)C[C@H]21 , is the recorded Population Hoechst High Intensity Objects (%) below the cut-off of 2%?
Response: f

Query: Dear reviewer, please state whether CCCCCCNC(=O)Nc1ccc(S(=O)(=O)Nc2ccc(CCNC[C@H](O)COc3ccc(O)cc3)cc2)cc1 has Population Hoechst High Intensity Objects (%) strictly beneath 2%.
Response: f

Query: Hello, I'm reviewing records and need to know if Population Hoechst High Intensity Objects (%) of COC(c1ccccc1)(c1ccccc1)[C@H](Oc1nc(C)cc(C)n1)C(=O)O is below 2%. Could you check?
Response: t

Query: # strict comparison: is reported Population Hoechst High Intensity Objects (%) < 2%? input = Cc1cc(NC(=O)NCCN2CCC(O)(Cc3ccccc3)CC2)c2ccccc2n1
Response: t

Query: Lab note: confirm whether the reported Population Hoechst High Intensity Objects (%) for this molecule is below 2%, equality not counting. molecule: CC(C)C[C@@H]1NC(=O)[C@@H](C(C)C)NC(=O)[C@@H]2CCCN2C(=O)[C@@H](CC(=O)O)NC(=O)[C@@H](Cc2c[nH]c3ccccc23)NC1=O [BQ-123] (cyclo(L[dW][dD]P[dV]))
Response: t

====

System: Fibroblast
Experiment: Multiplex assay against human fibroblast
Type: toxicity, cell-based
Settings: 48 h, 1 µM, compound concentration 1 uM, replicate 1
Quick rule for you: Population Mitotic Cells (%) under 40% gets Satisfied, anything else gets Not satisfied.

Consider the worked cases shown below.
Molecule	Group Label
OCCCNc1cc(-c2ccnc(Nc3cccc(Cl)c3)n2)ccn1	Not satisfied
CCn1c(-c2nc3cc(C(=O)N4CCCC(N)C4)ccc3n2C)cc2ccccc21.Cl (stereo unspecified)	Satisfied

Query: Identify whether the molecule C=CCN1C[C@H](C(=O)N(CCCN(C)C)C(=O)NCC)C[C@@H]2c3cccc4[nH]cc(c34)C[C@H]21 [CABERGOLINE] records Population Mitotic Cells (%) below 40%.
Response: Not satisfied

Query: # check: Population Mitotic Cells (%) < 40% for CN(C)C/C=C/C(=O)Nc1ccc(C(=O)N2CCCC(Nc3ncc(Cl)c(-c4c[nH]c5ccccc45)n3)C2)cc1 (stereo unspecified)
Response: Satisfied

Query: Identify whether the molecule O=C(NCCNCC(O)COc1ccc(O)cc1)N1CCOCC1.O=C(NCCNCC(O)COc1ccc(O)cc1)N1CCOCC1.O=C(O)/C=C/C(=O)O (stereo unspecified) [XAMOTEROL FUMARATE] records Population Mitotic Cells (%) below 40%.
Response: Satisfied

Query: Quick check: does COc1cc2nc(N3CCN(C(=O)c4ccco4)CC3)nc(N)c2cc1OC.Cl [PRAZOSIN HYDROCHLORIDE] have Population Mitotic Cells (%) under 40%?
Response: Not satisfied

Query: Problem: For the molecule CN1C[C@H](C(=O)N[C@]2(C)O[C@@]3(O)[C@@H]4CCCN4C(=O)[C@H](Cc4ccccc4)N3C2=O)C[C@@H]2c3cccc4[nH]cc(c34)C[C@H]21.CS(=O)(=O)O [DIHYDROERGOTAMINE MESYLATE] , is Population Mitotic Cells (%) under 40%?
Response: Not satisfied

Query: Bench note: check whether CC(C)(O)C(=O)N1CCN(c2ccc(C(F)(F)F)c(C3=C(c4c[nH]c5ccccc45)C(=O)NC3=O)c2)CC1 shows Population Mitotic Cells (%) below 40%
Response: Satisfied

Query: Report whether reported Population Mitotic Cells (%) is lower than 40% (strictly) for CC(C)(C)c1ccc(CSc2cnn(C(C)(C)C)c(=O)c2Cl)cc1 [PYRIDABEN]
Response: Not satisfied

Query: Is it true that Population Mitotic Cells (%) reported for Cc1cc(=O)n(C)c2cc(N3C(=O)CC[C@H](NS(=O)(=O)CC(C)C)[C@H]3c3ccc(Cl)cc3)ccc12 is less than 40%?
Response: Not satisfied

Query: # check: Population Mitotic Cells (%) < 40% for C[C@@H]1CC(=O)Nc2cccc(-c3ccc4c(c3)c(-c3cnn(C)c3)nn4C)c2N1
Response: Not satisfied

Query: Field: below-cutoff. Rule: recorded Population Mitotic Cells (%) strictly less than 40%. Subject: N[C@](CC1c2ccccc2Oc2ccccc21)(C(=O)O)[C@H]1C[C@@H]1C(=O)O
Response: Satisfied

Query: Population Mitotic Cells (%) under 40%? Item: COc1ccc2[nH]c(I)c(CCNC(C)=O)c2c1 [IODOMELATONIN]
Response: Satisfied

Query: Determine whether this molecule shows Population Mitotic Cells (%) lower than 40% (ties excluded): COCCCN1CCC(NC(=O)c2cc(Cl)c(N)c3c2OCC3)CC1 [PRUCALOPRIDE]
Response: Not satisfied
